# methodDescription: Photostability test according to ICH Q1B
# Assay type: physicochemical
# runConditions: Exposure, 1 ICH (10-day)
# Source text: (Test Example 3) Photostability Test […]
quantityKind: Crystalline form after completion of storage period

compound	endpointResult
Cc1ncc(-c2nc(-c3ccccc3)c(NC(=O)N[C@@H]3c4ccccc4C(C)(C)C[C@H]3O)cc2C)cn1 [Example 2]	Type I crystal
Cc1ncc(-c2nc(-c3ccccc3)c(NC(=O)N[C@@H]3c4ccccc4C(C)(C)C[C@H]3O)cc2C)cn1 [Example 5]	Type I crystal

---

# targetOrSystem: human TrkA protein (Homo sapiens (Human))
# Sequence (P04629 33-796): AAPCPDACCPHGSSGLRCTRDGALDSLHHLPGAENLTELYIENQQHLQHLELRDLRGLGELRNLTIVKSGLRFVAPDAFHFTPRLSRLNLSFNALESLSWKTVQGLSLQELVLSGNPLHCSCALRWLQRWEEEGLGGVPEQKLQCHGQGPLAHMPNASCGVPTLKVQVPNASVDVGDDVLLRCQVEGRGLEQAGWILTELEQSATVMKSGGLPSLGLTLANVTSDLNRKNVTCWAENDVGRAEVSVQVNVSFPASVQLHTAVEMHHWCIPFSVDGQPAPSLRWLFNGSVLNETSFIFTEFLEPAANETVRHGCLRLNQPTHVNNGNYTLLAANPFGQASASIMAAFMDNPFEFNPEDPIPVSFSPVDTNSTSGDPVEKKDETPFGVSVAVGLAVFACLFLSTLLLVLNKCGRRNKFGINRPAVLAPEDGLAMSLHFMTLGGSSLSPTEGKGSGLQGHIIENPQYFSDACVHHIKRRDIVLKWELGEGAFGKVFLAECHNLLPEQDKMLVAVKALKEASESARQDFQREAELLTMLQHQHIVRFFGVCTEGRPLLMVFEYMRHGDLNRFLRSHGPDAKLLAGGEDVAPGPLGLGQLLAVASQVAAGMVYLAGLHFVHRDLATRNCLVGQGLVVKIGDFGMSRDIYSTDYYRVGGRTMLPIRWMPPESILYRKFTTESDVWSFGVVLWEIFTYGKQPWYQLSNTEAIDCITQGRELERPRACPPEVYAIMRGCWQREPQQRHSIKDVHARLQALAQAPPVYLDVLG
pIC50: −log10 of the molar value.
quantityKind: pIC50

Ask | # get_value(readout='pIC50', item= Cc1ncc(-c2nc(-c3ccccc3)c(NC(=O)N[C@@H]3c4ccccc4C(C)(C)C[C@H]3O)cc2C)cn1 [Example 3] )
Reply | ≥ 7.30
